Assay: OD615 S. cerevisiae growth inhibition, permissive medium, pilot counter-assay, permissive growth control for S. cerevisiae lifespan shortening project (AID 705)
Conditions: OD615, 24 h, at 10 µM, stronger effect = higher value
Classification field: enter Met for growth inhibition values not below -10%, Not met for values below it.

The examples below pair each entry with its known result.
COc1cc2[nH]c(=O)n(CCCCCC(=O)N3CCN(c4ccccc4)CC3)c(=O)c2cc1OC | Not met
CC1=C(C(N)=O)C(c2ccccc2)n2nc(-c3cccc(C)c3)nc2N1 (stereo unspecified) | Met
Cc1cc(S(=O)(=O)N2CCN(c3ccc(F)cc3)CC2)c(C)s1 | Not met
Cc1ccc(Nc2nc(N3CCOCC3)nc(N3CCOCC3)n2)cc1 | Not met

Q: Test whether the compound CCOC(=O)c1[nH]c(C)c(C(=O)Nc2ccc(C)c(C)c2)c1C records growth inhibition of -10% or higher.
Ans: Not met

Q: Test whether the compound Cc1cccc(NC(=O)c2ccccc2Br)n1 records growth inhibition of -10% or higher.
Ans: Met

###

Test: growth suppression of beta-catenin knockout HCT116, pilot screen, human colon tumor cells (AID 823);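 also: 0% = wells killed by 20 µM Hyamine and 100% = untreated DMSO cell wells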
Details: CellTiter-Glo, 60 h, at 10 µM, stronger effect = lower value
Records with an inconclusive call do not appear.
# viability per entry
Quick reminder: number only, in %, skip the unit.

Worked cases, viability given:
CCCC(NS(=O)(=O)c1ccc(Br)cc1)C(=O)O (stereo not drawn) | 104
CN1CCN(c2ccccc2NC(=O)C(Cc2ccccc2)n2cccc2)CC1 (stereo not drawn) | 55.6
Cn1c(=O)c2c(nc(NCc3ccccc3)n2C)n(C)c1=O | 99.6

Q: Suppose we examine the compound OCCN1CCN(c2ncnc3c2sc2nc(N4CCOCC4)c4c(c23)CCC4)CC1 ; what viability value has been reported?
Ans: 55.3

Q: Suppose we examine the compound O=C(Cn1ncc2c(=O)oc3ccccc3c21)N1CCC(N2CCCCC2)CC1 ; what viability value has been reported?
Ans: 99.5

###

# inhibition per entry
Assay: growth suppression of yeast trafficking mutant, preliminary HTS, modulators of trafficking downstream of Golgi apparatus project, 1536-format plate, OD 615 nm (AID 637)
Details: yeast transport mutant growth, absorbance 615 nm, 18 h; stronger effect = higher value
Quick reminder: number only, in %, skip the unit.

Worked cases, inhibition given:
O=C1CC(Cc2ccccc2)C(=O)N1CCCn1ccnc1 (stereo unspecified) | -0.5
CCCn1c(O)c(CN2CCCC(C)C2)c(C)c(C#N)c1=O (stereo unspecified) | 5.32
C=CCOc1nc(N(C)C)nc(N(C)C)n1 | 1.31
CC(C)OC(=O)CSc1nc2cccnc2n1C1CCCCC1 | 3.44
Cc1nn(C)c(C)c1CN(C)C(=O)c1cc2nc(-c3ccco3)cc(C(F)(F)F)n2n1 | -9.33
Cc1ccc(C)c(NC(=O)c2ccc3c(c2)N(Cc2ccc(F)cc2)C(=O)CS3=O)c1 (stereo unspecified) | -0.66
CC1CN(c2nc(-c3ccccc3)nc3ccccc23)CC(C)O1 (stereo unspecified) | -5.67
Cn1c(=O)c2nc(Cl)n(Cc3ccc(Cl)cc3Cl)c2n(C)c1=O | 7.58

Q: Suppose we examine the compound COC(=O)CSc1nc(C)c(C(C)=O)cc1C#N ; what inhibition value has been reported?
Ans: -0.65

Q: Suppose we examine the compound CCOC(=O)N1CCN(CC(=O)c2c(C)[nH]c3ccccc23)CC1 ; what inhibition value has been reported?
Ans: -3.93

Q: Suppose we examine the compound Cc1ccc(NC(=O)CCC(=O)O)cc1F ; what inhibition value has been reported?
Ans: -2.7

###

Assay: Restrictive medium S. cerevisiae growth inhibition, OD615, pilot screen of yeast lifespan reduction project, restrictive growth control (AID 706);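 also: modified DeaD lifespan yeast strain shifted to restrictive glucose medium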
Conditions: OD615, 48 h, at 10 µM, stronger effect = higher value
Activity calls are given as the source filed them.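 Rule for the calls: active = growth inhibition above a set limit, 3 SD over mean compound inhibition, in both replicates (cut at about 43% in these data); inconclusive = above the limit in only one replicate; inactive = at or below the limit in both replicates.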
# growth inhibition per entry

CCN(CC)C(=O)c1cn(C)c(=O)c2cc(OC)c(OC)cc12 | -8.38% (inactive)

Now consider the entry below.
Q: Suppose we examine the compound Cc1cc(C)c(C#N)c(Nc2ccc3c(c2)OCCO3)n1 ; what growth inhibition value has been reported?
Ans: -10.2% (inactive)

###

Experiment: Restrictive medium S. cerevisiae growth inhibition, OD615, pilot screen of yeast lifespan reduction project, restrictive growth control (AID 706);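 also: modified DeaD lifespan yeast strain shifted to restrictive glucose medium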
Conditions: OD615, 48 h, at 10 µM, stronger effect = higher value
Experimental readout: growth inhibition (%)
Quick reminder: number only, in %, skip the unit.

COc1ccc(S(=O)(=O)N2CCC(C(=O)Nc3cccc(Cl)c3)CC2)cc1OC | -2.81
COc1ccc(C)cc1NC(=O)CN(c1ccccc1)S(C)(=O)=O | -4.67
O=S(=O)(c1cccs1)n1nnc2ccccc21 | -8.55
CCN(CCNS(=O)(=O)c1ccc2[nH]c(=O)sc2c1)c1ccccc1 | 13
Cn1c2c(c3ccccc31)CC/C2=N\O | 18.9
O=C(C1Cc2ccccc2O1)N1CCCCC1 (stereo not given) | 2.46
O=C1N(O)C2(C=CCCC2)/C(=N\O)C12CCCCC2 (stereo not given) | -1.67
COCCSc1nc2c(c(=O)[nH]c(=O)n2C)n1Cc1cccc(C)c1 | 0.3

Q: Suppose we examine the molecule c1coc(CNc2c3c(nc4ccccc24)CCC3)c1 ; what growth inhibition value has been reported?
Ans: -0.365

Q: Suppose we examine the molecule Clc1ccc(Sc2oc(/C=N/n3cnnc3)cc2Br)cc1 ; what growth inhibition value has been reported?
Ans: 22.4

Q: Suppose we examine the molecule COc1ccc(CN2CCNC(=O)C2CC(=O)O)cc1OC (stereo not given) ; what growth inhibition value has been reported?
Ans: -7.95

Q: Suppose we examine the molecule CCOC(=O)C1=C(N)OC2=C(C(=O)CCC2)C1c1ccccc1OCC (stereo not given) ; what growth inhibition value has been reported?
Ans: -4.66

Q: Suppose we examine the molecule CCc1ccc(NC(=O)Cn2c(=O)oc3cc(S(=O)(=O)N4CCOCC4)ccc32)cc1 ; what growth inhibition value has been reported?
Ans: -13.3

Q: Suppose we examine the molecule CCOc1ccc(NC(=O)CSc2nnc(Cn3c(=O)sc4ccccc43)n2C)cc1 ; what growth inhibition value has been reported?
Ans: -0.055

Q: Suppose we examine the molecule Cc1nnc(NC(=O)CSc2nccn2-c2cccc(C)c2C)s1 ; what growth inhibition value has been reported?
Ans: 11.5

Q: Suppose we examine the molecule CC(c1cccnc1)N(CCN(C)C)C(=O)Nc1ccc(Cl)c(Cl)c1 (stereo not given) ; what growth inhibition value has been reported?
Ans: -0.46

Q: Suppose we examine the molecule Cc1cc(/C=N/n2cnnc2)c(C)n1-c1ccc(OCc2ccc(F)cc2)cc1 ; what growth inhibition value has been reported?
Ans: 32.3

Q: Suppose we examine the molecule CCOc1ccc(-c2cc(CCCC(=O)Nc3cccc(OC)c3)no2)cc1 ; what growth inhibition value has been reported?
Ans: 3.52

Q: Suppose we examine the molecule Cc1cc(NC(=O)CSCc2nc(-c3cccc(Cl)c3)oc2C)no1 ; what growth inhibition value has been reported?
Ans: -5.47

###

Test: reversal of MRP1-mediated doxorubicin resistance, pilot screen, H69AR cells, doxorubicin co-treatment (AID 601)
Details: H69AR cells + 2 uM doxorubicin, CellTiter-Glo, 72 h; at 10 µM; stronger effect = higher value
Threshold 10%: differential viability (reversal) strictly smaller gives 1.0, otherwise 0.0.

COC(=O)c1[nH]c2cc(OC)ccc2c1NC(=O)CN1CCOCC1 | 1.0
CC1=CCC(C(C)(C)NC(=O)c2ccccc2)C/C1=N\O (stereo unspecified) | 0.0
O=C(CCC(=O)OCCCC(F)(F)C(F)(F)F)NC1CCCCC1 | 1.0
CC(C)COC(=O)NCC12C=CC(O1)C1C(=O)N(c3ccc(Cl)cc3)C(=O)C12 (stereo unspecified) | 1.0
Cn1c(=O)n(Cc2ccc(F)cc2)c(=O)c2c1nc1n2CCCN1Cc1ccccc1 | 0.0

Q: API: query returns whether the compound falls strictly under 10% in differential viability (reversal). Query: CCCCSCCCNC(=O)CS(=O)Cc1nc(-c2cccc(C)c2)oc1C (stereo unspecified)
Ans: 1.0

Q: API: query returns whether the compound falls strictly under 10% in differential viability (reversal). Query: c1ccc(OCCCn2nnc(-c3cccnc3)n2)cc1
Ans: 0.0

Q: API: query returns whether the compound falls strictly under 10% in differential viability (reversal). Query: CCOC(=O)c1[nH]nc(N)c1NC(=O)c1ccc(Cl)cc1Cl
Ans: 1.0

Q: API: query returns whether the compound falls strictly under 10% in differential viability (reversal). Query: COc1ccc(-n2c(COc3ccccc3)nnc2SCc2ccc(C#N)cc2)cc1
Ans: 0.0

Q: API: query returns whether the compound falls strictly under 10% in differential viability (reversal). Query: Cc1ccc(S(=O)(=O)CCc2nnc(NC(=O)c3cnccn3)s2)cc1
Ans: 1.0

Q: API: query returns whether the compound falls strictly under 10% in differential viability (reversal). Query: CCC1(CC)NC(=O)NC1=O
Ans: 0.0
